Experiment: Long-term stability of ground cannabis packaged in Syqe cartridges at 25° C.±2° C. (RH 60%±5%), LOD and U-HPLC
Format: physicochemical
Settings: 25° C., RH 60%, up to 24 months, one-way ANOVA
PROPERTY_LABEL: change in phytocannabinoid amount during storage

CCCCCc1cc2c(c(O)c1C(=O)O)[C@@H]1C=C(C)CC[C@H]1C(C)(C)O2 (relative stereo) [THCA]    decreased significantly
CCCCCc1cc(O)c(C/C=C(\C)CCC=C(C)C)c(O)c1C(=O)O [CBGA, Cannabigerolic acid]    decreased significantly
